# TEST_TARGET: CatB (Rattus norvegicus)
# Sequence (P00787 80-333): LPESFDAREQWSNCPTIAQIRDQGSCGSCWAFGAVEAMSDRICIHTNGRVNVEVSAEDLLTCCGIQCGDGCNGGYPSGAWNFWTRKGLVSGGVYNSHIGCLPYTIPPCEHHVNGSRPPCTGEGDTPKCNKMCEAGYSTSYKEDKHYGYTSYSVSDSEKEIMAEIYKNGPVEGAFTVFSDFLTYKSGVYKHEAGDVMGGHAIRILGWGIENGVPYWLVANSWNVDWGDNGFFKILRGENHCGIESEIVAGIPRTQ
# ASSAY_OVERVIEW: IC50 by competition with radiolabeled general cathepsin probe DCG-04 in rat liver lysate
# ASSAY_CONTEXT: 1 mg/ml rat liver lysate, inhibitor 20 minutes, then DCG-04 1 hour
Consider the following compounds; for each one, report its log10 of IC50.
# values: log10(IC50), units µM

Exercise: For the compound shown here, CC(C)C[C@H](NC(=O)C1OC1C(=O)O)C(=O)N[C@@H](Cc1ccc(O)cc1)C(N)=O (stereo partly shown) , give the reported log10 of IC50.
Solution: -0.40

Exercise: Consider the compound shown here: CCC[C@H](NC(=O)C1O[C@@H]1C(=O)NCC(=O)O)C(=O)N[C@@H](Cc1ccc(O)cc1)C(N)=O (stereo partly shown) What is its recorded log10 of IC50?
Solution: -0.72

Exercise: So what's the measured log10 of IC50 for this one? CCOC(=O)[C@H]1O[C@@H]1C(=O)N[C@@H](CC(C)C)C(=O)NCCc1ccc(O)cc1 [JPMOEt, reference compound]
Solution: -1.40

Exercise: // query log10 of IC50 value for entry Cc1ccc(C[C@H](NC(=O)C2O[C@H]2C(=O)O)C(=O)N[C@@H](Cc2ccc(O)cc2)C(N)=O)cc1 (stereo partly shown)
Solution: 0.83

Exercise: I'd like to know its log10 of IC50. The compound in question is "CC(C)C[C@H](NC(=O)[C@H]1O[C@@H]1C(=O)NCCc1ccc(O)cc1)C(=O)NCCc1ccccn1"
Solution: -0.51

Exercise: Fill in: log10 of IC50 of CC(C)C[C@H](NC(=O)C1OC1C(=O)NCCc1ccc(O)cc1)C(=O)N[C@@H](Cc1ccc(O)cc1)C(N)=O (single isomer, unassigned) [Compound 46] is ___
Solution: -2.00

Exercise: Can you look up the measured log10 of IC50 of CC(C)C[C@H](NC(=O)[C@H]1OC1C(=O)O)C(=O)N[C@@H](Cc1ccc(O)cc1)C(N)=O (stereo partly shown) for me?
Solution: -1.70
